- Measured On: ScMyo3
- Measurement Description: SPOT peptide array binding signal intensity (averaged, normalized) (arbitrary units (background-subtracted, floor 0; scale differs between SH3 domains)); higher = stronger binding of the SH3 domain to the peptide
Where SPOT peptide array binding signal intensity equals or exceeds 10, the correct label is 1; where it does not, the label is -1.

Here's what some known entries look like.
GATNNAPTLPKRKNP; -1
RFKRHRLEFPFNESE; -1
PLRRTVMSLPGNHDI; -1
MSPLGAPPPPPHKDH; 1
VGFRLALKFPSRITG; -1

Determine whether this binder has SPOT peptide array binding signal intensity no lower than 10: GKKVRPLLVLLLSRA
-1

# check: SPOT peptide array binding signal intensity of QTREPNEPPPPSPAM is greater than or equal to 10
1

These measurements were taken from the supplement of paper PMC4466140.
